# Tested on: Serratia marcescens
# method-summary: Antibacterial activity against Serratia marcescens SANK 72790
# Format: functional
reported-endpoint: MIC

1) CCCCCC[C@H]1OC(=O)CNC(=O)[C@@H]([C@H](C)OC)NC(=O)[C@H](CO)NC(=O)[C@H]([C@H](C)CC)NC(=O)[C@H](CC(C)C)N(C)C(=O)[C@@H]1C :: > 100 µg/mL

For every item below, please supply its MIC.
1. CCCCCC[C@H]1OC(=O)CNC(=O)[C@H]([C@H](C)O)NC(=O)[C@H](CO)NC(=O)[C@H]([C@H](C)CC)NC(=O)[C@H](CC(C)C)NC(=O)[C@@H]1C
2. CCCCCC[C@H]1OC(=O)CNC(=O)[C@@H]([C@H](C)O)NC(=O)[C@H](CO)NC(=O)[C@H]([C@@H](C)CC)NC(=O)[C@H](CC(C)C)N(C)C(=O)[C@@H]1C

Solution:
> 100 µg/mL
> 100 µg/mL

For every item below, please supply its MIC.
1. CCCCCC[C@H]1OC(=O)CNC(=O)[C@H]([C@H](C)O)NC(=O)[C@H](CO)NC(=O)[C@H]([C@H](C)CC)NC(=O)[C@H](CC(C)C)N(C)C(=O)[C@@H]1C
2. CCCCCC[C@H]1OC(=O)CNC(=O)[C@@H]([C@@H](C)O)NC(=O)[C@H](CO)NC(=O)[C@H]([C@H](C)CC)NC(=O)[C@H](CC(C)C)N(C)C(=O)[C@@H]1C
3. CCCCCCCCCC[C@H]1OC(=O)CNC(=O)[C@H]([C@H](C)O)NC(=O)[C@H](CO)NC(=O)[C@H]([C@H](C)CC)NC(=O)[C@H](CC(C)C)N(C)C(=O)[C@@H]1C
4. CCCCCCCC[C@H]1OC(=O)CNC(=O)[C@H]([C@H](C)O)NC(=O)[C@H](CO)NC(=O)[C@H]([C@H](C)CC)NC(=O)[C@H](CC(C)C)N(C)C(=O)[C@@H]1C
5. CCCCCC[C@H]1OC(=O)CNC(=O)[C@H](CC)NC(=O)[C@H](CO)NC(=O)[C@H]([C@H](C)CC)NC(=O)[C@H](CC(C)C)N(C)C(=O)[C@@H]1C
6. CCCCCC[C@H]1OC(=O)CNC(=O)[C@@H]([C@@H](C)O)NC(=O)[C@H](CO)NC(=O)[C@H]([C@@H](C)CC)NC(=O)[C@H](CC(C)C)N(C)C(=O)[C@@H]1C

Solution:
1. 100 µg/mL
2. > 100 µg/mL
3. 3.13 µg/mL
4. 12.5 µg/mL
5. > 100 µg/mL
6. > 100 µg/mL
